So I've got a bunch of molecules here, and I need their growth values.
System: NCI-H322M lung
Assay: NCI-60 one-dose screen, 48 h (100 = growth as untreated, 0 = no growth, -100 = all killed)
Settings: 10 µM unless noted
Method: Growth inhibition of the NCI-H322M human Non-Small Cell Lung tumor cell line is measured as a screen for anti-cancer activity. Cells are grown in 96 well plates and exposed to the test compound for 48 hours. Compounds are tested at a single concentration, which is 10^-5 M for most compounds. The reported endpoint is percent growth (GI% or GIPRCNT), where numbers from 0 - 100% represent growth inhibition, and numbers from -100% - 0 represent cell death. […]
About 83,000 compounds went through this panel and 20% of them were active in at least one assay; those are over-represented in the sample as a whole. Active and inactive are the calls of the source. The calls were made as follows: active = growth percent below 10; inactive = the rest.

Could I get growth for every one of these entries?
1. OCC1CCC(O)C(CO)N1 (stereo unspecified)
2. C/C(=N\N=C(/C)c1cccc([N+](=O)[O-])c1)c1cccc([N+](=O)[O-])c1
3. CCN(CC)CCN1CNC(=S)NC1
4. O=C1NCC2CCCC1C2 (stereo unspecified)
5. O=C(O)CCCCCNC(=O)OCc1ccccc1
6. CC(=O)NCNC(C)=O

A)
1. 113% (inactive)
2. 96.1% (inactive)
3. 108% (inactive)
4. 96.8% (inactive)
5. 95.1% (inactive)
6. 110% (inactive)

---

System: UACC-62 melanoma
Test: NCI-60 one-dose screen, 48 h (100 = growth as untreated, 0 = no growth, -100 = all killed)
Settings: 10 µM unless noted
Method: Growth inhibition of the UACC-62 human tumor cell line is measured as a screen for anti-cancer activity. Cells are grown in 96 well plates and exposed to the test compound for 48 hours. Compounds are tested at a single concentration, which is 10^-5 M for most compounds. The reported endpoint is percent growth (GI% or GIPRCNT), where numbers from 0 - 100% represent growth inhibition, and numbers from -100% - 0 represent cell death. For example, a value of 40 represents 60% growth inhibition. […]
About 83,000 compounds went through this panel and 20% of them were active in at least one assay; those are over-represented in the sample as a whole.
value.type: growth (%)
Give bare numbers, in %.

Worked cases, answers included:
COc1ccc2c(c1)Nc1ccccc1S2    96.2
NNC(=O)N/N=C1\C(=O)N(c2nccs2)C(=O)C(=O)C1c1nc2ccccc2s1 (centres undefined)    90.5
CCN(C(C)=O)c1ccc([N+](=O)[O-])cc1    97.5
Clc1ccc(-c2noc(/C=C\c3ccccc3)n2)cc1    100
COC1(OC)C2(Cl)C(Cl)=C(Cl)C1(Cl)C1COCC12 (centres undefined)    97.4

For each of the compounds below, note its growth.
1. O=C1C=CC(=O)C2=C1CCCC2
2. CCCCN(C(=O)CC)c1ccccc1
3. CCNCC(C)(C)O
4. Oc1ccc2ccccc2c1CN1CCOCC1

A)
[85.5, 99.2, 102, 111]

---

So I've got a bunch of molecules here, and I need their growth values.
Tested on: OVCAR-4 ovarian
Assay: NCI-60 one-dose screen, 48 h (100 = growth as untreated, 0 = no growth, -100 = all killed)
Settings: 10 µM unless noted
Experimental: Growth inhibition of the OVCAR-4 human tumor cell line is measured as a screen for anti-cancer activity. Cells are grown in 96 well plates and exposed to the test compound for 48 hours. Compounds are tested at a single concentration, which is 10^-5 M for most compounds. The reported endpoint is percent growth (GI% or GIPRCNT), where numbers from 0 - 100% represent growth inhibition, and numbers from -100% - 0 represent cell death. For example, a value of 40 represents 60% growth inhibition. […]
The panel holds about 83,000 compounds, 20% with a hit somewhere; the sample as a whole holds those more often. Active and inactive are the calls of the source. The calls were made as follows: active = growth percent below 10; inactive = the rest.

CCOC(=O)C(CCC#N)(CCC#N)C(=O)OCC    96% (inactive)
CCCCN(C=S)CCCC    112% (inactive)
NC(=O)NCCO    110% (inactive)

Hi, could you look up growth for each item in my list?
1. CCNc1ncnc2[nH]ncc12
2. OC(CBr)CCBr (centres undefined)
3. COc1cc2c(c(OC)c1OC)-c1ccc(SC)c(=O)cc1[C@@H](NC1OC(CO)C(O)C(O)C1O)CC2 (some centres undefined)

A)
1. 108% (inactive)
2. 93.5% (inactive)
3. 68.3% (inactive)

Batch lookup, growth per entry.
1. O=C(O)c1cc(I)ccc1O
2. CC(C)C1CCC(C)C(O)C1 (centres undefined)
3. OCc1cccnc1
4. C/C(Cc1ccccc1)=N\O
5. C#CCSc1nnnn1-c1ccccc1
6. C=CCC(OC(C)=O)c1ccc(OC)c(OC)c1 (centres undefined)
7. CNc1ccccc1C(N)=O
8. CC(C)N(CCCC#N)C(C)C

A)
1. 107% (inactive)
2. 108% (inactive)
3. 115% (inactive)
4. 117% (inactive)
5. 92.6% (inactive)
6. 118% (inactive)
7. 109% (inactive)
8. 88.7% (inactive)

# batch size: 6; output growth per entry
1. N#C/C(=C\c1ccc2c(c1)OCO2)c1ccccc1
2. CC(=O)/C(C)=N\OC(=O)Nc1ccccc1
3. CC(=O)Oc1c(Cl)cccc1-c1ccccc1
4. COc1ccc(C2CCCCC2=O)cc1 (centres undefined)
5. O=Cc1ccc(O)c(O)c1
6. CCCCOC(=O)c1ccc(NC(=O)CCl)cc1

A)
["99.8% (inactive)", "97.7% (inactive)", "110% (inactive)", "103% (inactive)", "97.1% (inactive)", "-53% (active)"]

List the reported growth of each molecule below.
1. Cc1ccccc1CC(N)C(=O)O (centres undefined)
2. C(=C\c1ccncc1)/c1ccncc1
3. CN(C)Cc1ccccn1
4. CC(=O)NCNC(C)=O
5. CCCCNc1ccc(-c2ccc(NCCCC)cc2)cc1
6. O=S1(=O)c2ccccc2Oc2ccccc21

A)
1: 103% (inactive); 2: 92.4% (inactive); 3: 106% (inactive); 4: 110% (inactive); 5: 63.5% (inactive); 6: 100% (inactive)

---

test system: HOP-92 NSCLC; experiment: NCI-60 one-dose screen, 48 h; conditions: 10 µM unless noted
This is part of a sample that, as a whole, favours compounds with a hit. Of some 83,000 tested, about 20% had one in any assay. Active and inactive are the calls of the source. How the source made its calls: active means growth percent below 10; inactive means the rest.
Can you answer with just one of these options? t (active), f (inactive)

Use the examples below as a reference point.
CC(C)C1CCC(C)C(O)C1 (stereo unspecified)    f
O=C(OCC1CCCO1)c1ccc([N+](=O)[O-])cc1 (stereo unspecified)    f
CCOC(=O)CNC(=O)Sc1ccc(C(C)(C)C)cc1    f
CCOC(=O)Nc1nccs1    f
CC(=O)N(CCCCCCN(C(C)=O)C(C)=O)C(C)=O    f
CCOc1ccc(NC(=S)N2CCC(CCCC3CCN(C(=S)Nc4ccc(OCC)cc4)CC3)CC2)cc1    f
O=C(NC(=S)N1CC=CCC1)c1ccccc1    f
NC(CSSCC(N)C(=O)O)C(=O)O (stereo unspecified)    f

Query molecule follows.
Q) Could you please tell me the result logged for CCCCCCCCCc1ccc(OC(C)=O)cc1 in this assay?
A) f

---

system: RPMI-8226 leukemia; experiment: NCI-60 one-dose screen, 48 h; settings: 10 µM unless noted
The panel holds about 83,000 compounds, 20% with a hit somewhere; the sample as a whole holds those more often. Activity calls are given as the source filed them. How the source made its calls: active means growth percent below 10; inactive means the rest.
Classes to choose from: true (1) for active, false (0) for inactive

c1cc(CNCCNCc2ccncc2)ccn1    false (0)
C/C(O)=C(/C=N\C(=S)Nc1ccc(S(=O)(=O)Nc2nccs2)cc1)C(=O)Nc1ccccc1C    false (0)
CC(c1ccccc1)N1C(=O)CSC1=S (configuration not stated)    false (0)
Cc1ccc(S(=O)(=O)CCCl)cc1    false (0)
COC(=O)Cc1cc(COC(C)=O)ccc1C    false (0)
COc1ccc2c(ccc[n+]2C)c1    false (0)

Q) Entry CCN(CC)CCOC(=O)Nc1c(C(C)C)cccc1C(C)C : call = ?
A) false (0)

Q) Write down the call the test reported for this compound. Item: C=CCC(OC(C)=O)c1ccc(C(C)C)cc1 (configuration not stated)
A) false (0)

Q) State the result this test recorded for Nc1ncc([N+](=O)[O-])cn1 .
A) false (0)

---

system: SR leukemia; assay: NCI-60 one-dose screen, 48 h; conditions: 10 µM unless noted
About 83,000 compounds went through this panel and 20% of them were active in at least one assay; those are over-represented in the sample as a whole. Calls of active or inactive are those of the source. How the source made its calls: active means growth percent below 10; inactive means the rest.
Output constraint: value belongs to active, inactive

Some solved cases for reference:
CSc1nc2[nH]ncc2c(=O)[nH]1    inactive
CC(C)Sc1ncnc2nc[nH]c12    inactive
NC(=S)N/N=C/c1ccc(Cl)cc1    inactive
CCNc1ncnc2[nH]ncc12    inactive
OC(CCN1CCCCC1)(c1ccccc1)c1ccccc1    inactive

Q) Which outcome was assigned to COC(=O)c1ccc([N+](=O)[O-])c(C)c1 in this test?
A) inactive

Q) Give the logged outcome of this assay for the following compound: CCCCCCCCNC(=O)C(C)C
A) inactive

Q) Test call, this compound: O=C(Oc1ccccc1Cl)c1ccc(Cl)cc1Cl
A) inactive

Q) How did this test come out for O=C(NCc1ccccc1)c1cccc([N+](=O)[O-])c1 ?
A) inactive

Q) In this assay, the call recorded for O=C(c1ccc(Cl)cc1)N1CCCCC1 was what?
A) inactive

Q) For this compound, state the assay outcome: Cn1c(=O)c2[nH]c(CCCCC(=O)O)nc2n(C)c1=O
A) inactive

Q) Give the logged outcome of this assay for the following compound: Clc1ccc(C(SCc2ccccc2)SCc2ccccc2)cc1
A) inactive

Q) For CC(=O)Nc1ccc(O)c(C)c1 , what call appears in the results of this test?
A) inactive

Q) // return assay outcome for CN(C)CCOC(=O)Nc1ccc(Cc2ccc(NC(=O)OCCN(C)C)cc2)cc1
A) active

Q) Hi team, can someone confirm the assay call for O=C(CCCl)OCCOc1ccccc1 ?
A) inactive

Q) For this compound, state the assay outcome: C=C1SC(=Nc2c(C)cccc2C)N(c2nc(Cl)nc(Cl)n2)C12CCCCC2
A) inactive

Q) Recorded test outcome, item Cc1cc(C(=O)c2ccccc2)cc(C)c1O
A) inactive

Q) // param item: c1ccc2[nH]c(Cc3nc4ccccc4[nH]3)nc2c1 ; yields the recorded call
A) inactive

Q) Give the logged outcome of this assay for the following compound: S=CN1CCCCC1
A) inactive

Q) Outcome logged for CCOC(=O)C(CCC#N)(CCC#N)C(=O)OCC in this assay:
A) inactive

Q) For this compound, state the assay outcome: O=C(NCCc1ccccc1)/C(=C\c1ccc(Cl)cc1Cl)NC(=O)c1ccccc1
A) inactive

Q) # outcome recorded in this test, key = Cc1cc(CO)c(O)c(CO)c1
A) inactive

Q) Please state the recorded outcome for this compound: Cn1c(=O)[nH]c2ccccc2c1=O
A) inactive

Q) Please let me know the test result on file for O=C(Nc1ccccc1)c1ccco1 .
A) inactive

Q) Could you kindly confirm the outcome this assay logged for CCCCCC#CC(=O)O ?
A) inactive

Q) In this assay, the call recorded for CCOC(=O)C(C#N)=C1CCN(C)CC1 was what?
A) inactive
